Value source: ChEMBL document CHEMBL4808200

This section presents compounds with their documented CLH values.
# METHOD_NOTES: Intrinsic clearance in human cryopreserved pooled hepatocytes at 0.5 uM measured up to 120 mins by LC-MS/MS analysis
# Assay type: ADME, tissue-based, Hepatocyte
# CONDITIONS_USED: 2 h
QUANTITY_NAME: CLH

>>> test_result("CNC(=O)c1cc(C(=O)N[C@H]2[C@@H]3COC[C@@H]32)cc([C@@H](C)c2ccccc2)n1")
"< 0.45 mL/min/g"
>>> test_result("CNC(=O)c1cc(C(=O)N[C@H]2[C@@H]3COC[C@@H]32)cc(C(CC#N)c2ccccc2)n1 (stereo partly specified)")
"< 0.45 mL/min/g"
>>> test_result("CNC(=O)c1cc(C(=O)NC2CC2)cc(Cc2ccccc2)n1")
"< 0.87 mL/min/g"
>>> test_result("CNC(=O)c1cc(C(=O)N[C@H]2[C@@H]3COC[C@@H]32)cc(C(OC)c2ccccc2)n1 (stereo partly specified)")
"< 0.45 mL/min/g"
>>> test_result("CNC(=O)c1cc(C(=O)NCCC[C@H]2OC[C@H](N)CO2)cc(Cc2ccccc2)n1")
"< 0.45 mL/min/g"
>>> test_result("CNC(=O)c1cc(C(=O)NC2CC2)cc(Cc2cccc3c2CCN3)n1.Cl")
"< 0.45 mL/min/g"
>>> test_result("CNC(=O)c1cc(C(=O)N[C@H]2[C@@H]3COC[C@@H]32)cc(Cc2ccccc2)n1")
"< 0.45 mL/min/g"
>>> test_result("CNC(=O)c1cc(C(=O)N[C@H]2C[C@@H]2C)cc([C@@H](O)c2ccccc2)n1")
"0.8 mL/min/g"
>>> test_result("CNC(=O)c1cc(C(=O)N[C@H]2[C@@H]3COC[C@@H]32)cc(Cc2cccc3[nH]ccc23)n1")
"< 0.45 mL/min/g"
>>> test_result("CNC(=O)c1cc(C(=O)N[C@H]2C[C@@H]2C)cc(Cc2cccc3[nH]ccc23)n1")
"< 0.45 mL/min/g"
>>> test_result("CNC(=O)c1cc(C(=O)N[C@H]2[C@@H]3C[C@@H](O)C[C@@H]32)cc(C(OC)c2ccccc2)n1 (stereo partly specified)")
"< 0.45 mL/min/g"
